T½ for assorted binders
Target: T1, human BCMA (human, UniProt Q02223 1-54)
T1 construct: also called huBCMA; hBCMA
T1 sequence: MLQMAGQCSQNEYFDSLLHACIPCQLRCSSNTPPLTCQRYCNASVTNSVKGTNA
Experiment: SPR, immobilised IgG, 37° C

{"binder": "L3.PY/L1.AH/H2.DY (antibody, V domains shown, IgG in the assay) VH: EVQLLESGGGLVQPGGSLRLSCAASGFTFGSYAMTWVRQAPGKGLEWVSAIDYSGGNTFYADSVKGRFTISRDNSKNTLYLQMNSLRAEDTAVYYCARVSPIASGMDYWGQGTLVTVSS VL: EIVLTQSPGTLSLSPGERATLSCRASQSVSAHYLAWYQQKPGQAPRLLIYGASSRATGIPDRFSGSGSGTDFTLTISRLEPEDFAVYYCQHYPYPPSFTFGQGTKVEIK", "T½ [min]": 7.62}
{"binder": "L3.PY/L1.PH/H2.QR (antibody, V domains shown, IgG in the assay) VH: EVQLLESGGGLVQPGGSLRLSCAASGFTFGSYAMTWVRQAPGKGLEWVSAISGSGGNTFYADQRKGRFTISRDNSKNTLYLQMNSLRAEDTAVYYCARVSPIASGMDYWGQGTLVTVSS VL: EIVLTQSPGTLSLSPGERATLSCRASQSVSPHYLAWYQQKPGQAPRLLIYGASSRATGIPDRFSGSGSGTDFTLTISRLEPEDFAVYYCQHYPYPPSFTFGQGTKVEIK", "T½ [min]": 4.89}
